- tested_on: T1, human PDL1-Fc (R & D Systems) (human, UniProt Q9NZQ7 19-239)
- T1 construct: Bought reagent; not shown: Fc part of the bought fusion protein; not described
- measurement_notes: ELISA, PDL1-Fc adsorbed, anti-human IgG (Fab specific)-HRP
recorded_metric: binding result

binder | measured
anti-PDL1 antibody G12B10 (antibody, V domains shown, Fully human IgG; also called PDL1 G12B10) VH: EVQLLESGGGLVQPGGSLRLSCAASGFTFSSYAMSWVRQAPGKGLEWVSSIWYQGLVTVYADSVKGRFTISRDNSKNTLYLQMNSLRAEDTAVYYCAKWSAGYDYWGQGTLVTVSS VL: DIQMTQSPSSLSASVGDRVTITCRASQSISSYLNWYQQKPGKAPKLLIYYASTLQSGVPSRFSGSGSGTDFTLTISSLQPEDFATYYCQQDNGYPSTFGQGTKVEIKR | binds
anti-PDL1 antibody G12E10 (antibody, V domains shown, Fully human IgG; also called PDL1 G12E10) VH: EVQLLESGGGLVQPGGSLRLSCAASGFTFSSYAMSWVRQAPGKGLEWVSSIWYQGLVTVYADSVKGRFTISRDNSKNTLYLQMNSLRAEDTAVYYCAKWSKGFDYWGQGTLVTVSS VL: DIQMTQSPSSLSASVGDRVTITCRASQSISSYLNWYQQKPGKAPKLLIYYASTLQSGVPSRFSGSGSGTDFTLTISSLQPEDFATYYCQQDNGYPSTFGQGTKVEIKR | binds
anti-PDL1 antibody C5E10 (antibody, V domains shown, Fully human IgG) VH: EVQLLESGGGLVQPGGSLRLSCAASGFTFSSYAMSWVRQAPGKGLEWVSSIWRNGIVTVYADSVKGRFTISRDNSKNTLYLQMNSLRAEDTAVYYCAKWSKGFDYWGQGTLVTVSS VL: DIQMTQSPSSLSASVGDRVTITCRASQSISSYLNWYQQKPGKAPKLLIYYASTLQSGVPSRFSGSGSGTDFTLTISSLQPEDFATYYCQQDNGYPSTFGQGTKVEIKR | binds
